# test_system: T1, human ROR1 Frizzled domain (hROR1-Fz) (human, UniProt Q01973 165-305)
# T1 construct: Acro Biosystems, made in HEK293
# T1 sequence (Q01973 other isoform, or with tags, fused parts or gaps): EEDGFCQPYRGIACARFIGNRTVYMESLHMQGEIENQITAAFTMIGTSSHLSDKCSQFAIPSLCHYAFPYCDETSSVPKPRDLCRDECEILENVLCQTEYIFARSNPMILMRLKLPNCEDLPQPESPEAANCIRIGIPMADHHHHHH
# assay_overview: SPR Biacore, IgG on anti-Fc, ROR1-Fz analyte
pKd: −log10 of the molar value.

binder: SRP2196-A10 (antibody, V domains shown, His/FLAG-tagged IgG1) VH: EVQLVESGGGLVQPGGSLRLSCAASGFNITGYYIHWVRQAPGKGLEWVGYISPNSGATHYADSVKGRFTISADISKNTAYLQMNSLRAEDTAVHYCARDSRRYVRSWDYWGQGTLVTVSS VL: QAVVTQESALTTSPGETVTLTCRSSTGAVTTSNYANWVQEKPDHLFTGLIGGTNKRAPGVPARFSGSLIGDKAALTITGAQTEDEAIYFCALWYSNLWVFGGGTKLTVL
pKd: 8.56
//
binder: SRP2196-A09 (antibody, V domains shown, His/FLAG-tagged IgG1) VH: EVQLVESGGGLVQPGGSLRLSCAASGFNITGYYIHWVRQAPGKGLEWVGQISPNSGATHYADSVKGRFTISADTSKNTAYLQMNSLRAEDTAVYYCARDSRRYIRSWDYWGQGTLVTVSS VL: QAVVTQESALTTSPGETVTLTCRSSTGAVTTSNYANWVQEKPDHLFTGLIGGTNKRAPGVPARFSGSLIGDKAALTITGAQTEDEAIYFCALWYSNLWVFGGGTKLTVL
pKd: 8.42
